Answer each item with its documented IC50.
Unit µM implied. Number only.

Log: DNA topoisomerase 2-alpha (Homo sapiens, UniProt P11388), molecule O=C(Nc1ccc(O)cc1)c1c(O)n(-c2ccccc2)c(=S)n(-c2ccccc2)c1=O , IC50 = 150

Observed IC50, DNA topoisomerase 2-alpha (Homo sapiens, UniProt P11388), O=C(Nc1ccccc1)c1c(O)n(-c2ccccc2)c(=S)n(-c2ccccc2)c1=O : 5

IC50 of COc1cccc(NC(=O)c2c(O)n(-c3ccccc3)c(=S)n(-c3ccccc3)c2=O)c1 , assay on DNA topoisomerase 2-alpha (Homo sapiens, UniProt P11388), is 30

Assay DNA topoisomerase 2-alpha (Homo sapiens, UniProt P11388), sample COc1cc(NC(=O)c2c(O)n(-c3ccccc3)c(=S)n(-c3ccccc3)c2=O)cc(OC)c1O , IC50 read: 120

The molecule O=C(Nc1cccc(O)c1)c1c(O)n(-c2ccccc2)c(=S)n(-c2ccccc2)c1=O , when measured on DNA topoisomerase 2-alpha (Homo sapiens, UniProt P11388), yielded IC50 of 200

DNA topoisomerase 2-alpha (Homo sapiens, UniProt P11388) IC50 of O=C1NC(=S)NC(=O)C1C(=O)Nc1ccccc1 [MERBARONE] is 120
